System: Caenorhabditis elegans
Conditions: 10 micrograms per milliliter agar, 24 h at 20° C.
This listing pairs compounds with measured Percent mortality.
Output spec: scalar in %, unitless text.

compound	target_or_system	Percent mortality, %
Fc1ccc(F)c2c(NCCc3ccc(Oc4nccc(C(F)(F)F)n4)cc3)ncnc12 [Compound 3]	Caenorhabditis elegans	100
Fc1cc(Oc2cc(C(F)(F)F)ccn2)ccc1CCNc1ncnc2c(F)ccc(F)c12 [Compound 76]	Caenorhabditis elegans	100
[O-][n+]1ccc(C(F)(F)F)c(Oc2ccc(CCNc3ncnc4c(F)ccc(F)c34)cc2)c1 [Compound 115]	Caenorhabditis elegans	100

Exercise: Determine its reported Percent mortality: N#Cc1cc(Cl)ncc1Oc1ccc(CCNc2ncnc3c(F)ccc(F)c23)cc1 [Compound 125]
Key: 0

Exercise: Determine its reported Percent mortality: Fc1cc(F)c2ncnc(NCCc3ccc(Oc4cnccc4C(F)(F)F)c(Cl)c3)c2c1F [Compound 93]
Key: 100

Exercise: Determine its reported Percent mortality: COc1ccc(CCNc2ncnc3c(F)ccc(F)c23)c(C)c1 [Compound 42]
Key: 6

* * *

System: Septoria tritici (SEPTTR)
Test: Septoria blotch of wheat foliar protectant test
Format: in vivo
Details: Zymoseptoria tritici; 200 ppm foliar, inoculated one day after treatment; read-out: Activity against fungal diseases SEPTTR
readout_label: pest or weed control at 200 ppm

structure_string	result
COc1cc(CCNc2ncnc3c(F)ccc(F)c23)ccc1Oc1ncc(C(F)(F)F)cc1F	80 to 100%
CC(F)(F)c1cc[n+]([O-])c(Oc2ccc(CCNc3ncnc4c(F)ccc(F)c34)cc2)c1	80 to 100%

Exercise: Determine its reported pest or weed control at 200 ppm: COc1cc(CCNc2ncnc3c(F)ccc(F)c23)ccc1Oc1ccc(C(F)(F)F)cn1
Key: 80 to 100%

Exercise: Determine its reported pest or weed control at 200 ppm: N#Cc1ccnc(Oc2ccc(CCNc3ncnc4c(F)ccc(F)c34)cc2)c1
Key: 0 to 49%

Exercise: Determine its reported pest or weed control at 200 ppm: Oc1ccc(CCNc2ncnc3c(F)ccc(F)c23)cc1F
Key: 0 to 49%

Exercise: Determine its reported pest or weed control at 200 ppm: Cc1cc(CCNc2ncnc3c(F)cc(F)c(F)c23)ccc1O
Key: 50 to 79%

Exercise: Determine its reported pest or weed control at 200 ppm: Cc1cc(CCNc2ncnc3c(F)ccc(F)c23)ccc1Oc1nc(F)c(F)c(N)c1F
Key: 0 to 49%

Exercise: Determine its reported pest or weed control at 200 ppm: Fc1ccc(F)c2c(NCCc3ccc(Oc4cc(Cl)ncn4)cc3)ncnc12
Key: 0 to 49%

* * *

System: Septoria tritici (SEPTTR)
Assay: Septoria blotch of wheat foliar protectant test
Type: in vivo
Conditions: Zymoseptoria tritici; 200 ppm foliar, inoculated one day after treatment; read-out: Activity against fungal diseases SEPTTR
This listing pairs compounds with measured pest or weed control at 200 ppm.

Exercise: Determine its reported pest or weed control at 200 ppm: COc1ccc(C(C)Nc2ncnc3c(F)ccc(F)c23)cc1 (stereo not drawn)
Key: 0 to 49%

Exercise: Determine its reported pest or weed control at 200 ppm: Fc1cc(CCNc2ncnc3c(F)ccc(F)c23)ccc1Oc1ncc(C(F)(F)F)cc1F
Key: 80 to 100%

Exercise: Determine its reported pest or weed control at 200 ppm: Cc1cc(CCNc2ncnc3c(F)ccc(F)c23)ccc1O
Key: 0 to 49%

Exercise: Determine its reported pest or weed control at 200 ppm: COc1cc(C)c(CCNc2ncnc3c(F)ccc(F)c23)cc1C
Key: 0 to 49%

Exercise: Determine its reported pest or weed control at 200 ppm: COc1ccc(CCNc2ncnc3c(F)ccc(F)c23)cc1F
Key: 0 to 49%

Exercise: Determine its reported pest or weed control at 200 ppm: Fc1ccc(F)c2c(NCCOc3ccc(Oc4cc(C(F)(F)F)ccn4)cc3)ncnc12
Key: 50 to 79%

Exercise: Determine its reported pest or weed control at 200 ppm: Fc1ccc(F)c2c(NCCc3ccc(Oc4ccnc(C(F)(F)F)c4Cl)cc3)ncnc12
Key: 80 to 100%

Exercise: Determine its reported pest or weed control at 200 ppm: [O-][n+]1ccc(C(F)(F)F)cc1Oc1ccc(CCNc2ncnc3c(F)cc(F)c(F)c23)cc1
Key: 80 to 100%

Exercise: Determine its reported pest or weed control at 200 ppm: Cc1cc(CCNc2ncnc3c(F)cc(F)c(F)c23)ccc1Oc1cc(C(F)(F)F)ccn1
Key: 80 to 100%
